Entries annotated with measured pEC50
# Tested on: RS4;11 cells
# TEST PROTOCOL: RS4;11 cell viability assay (CellTiter Glo);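 also: acute lymphoblastic leukemia line RS4,11, EC50 derived from percentage of viable cells after treatment relative to untreated controls, cell killing taken as a measure of Bcl-2 inhibition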
# Assay type: cell-based, human
# TEST CONTEXT: Homo sapiens, RS4-11, 48 h, 50,000 cells per well, 10% human serum, 48 hours; read-out: RS4; 11 EC50 Values
Reminder that pEC50 is minus the log10 of a molar concentration.

CC1(C)CCC(CN2CCN(c3ccc(C(=O)NS(=O)(=O)c4ccc(NCC5CN(C6CC6)CCO5)c(Cl)c4)c(Oc4cnc5[nH]ccc5c4)c3)CC2)=C(c2ccc(Cl)cc2)C1 (centres unmarked) [Example 332] has a reported pEC50 of 6.34

Per the records, this molecule ( CC1(C)CCC(CN2CCN(c3ccc(C(=O)NS(=O)(=O)c4ccc(OCC5CCC6(CC5)COC6)c([N+](=O)[O-])c4)c(Oc4cnc5[nH]ccc5c4)c3)CC2)=C(c2ccc(Cl)cc2)C1 [Example 351] ) has pEC50 equal to 8.69

Sample O=C(NS(=O)(=O)c1ccc(NCC2CCOCC2)c([N+](=O)[O-])c1)c1ccc(N2CCC(F)(Cc3ccccc3-c3ccc(Cl)cc3)CC2)cc1Oc1cnc2[nH]ccc2c1 [Example 271] ; pEC50 observed: 6.36

CC1(C)CCC(CN2CCN(c3ccc(C(=O)NS(=O)(=O)c4cnc(OCC5(F)CCOCC5)c(C(F)(F)F)c4)c(Oc4cnc5[nH]ccc5c4)c3)CC2)=C(c2ccc(Cl)cc2)C1 [Example 208] yielded pEC50 of 6.92

For record CC1(C)CC(c2ccc(Cl)cc2)=C(CN2CCN(c3ccc(C(=O)NS(=O)(=O)c4ccc(N[C@H]5CC[C@H](N6CCOCC6)CC5)c(S(=O)(=O)C(F)(F)F)c4)c(Oc4cnc5[nH]ccc5c4)c3)CC2)CO1 [Example 44] the listed pEC50 is 7.27
